List of pKd values.
Target: T1, CEACAM1 (Sino Biological) (human, UniProt P13688 35-428, limits assumed)
T1 construct: may be the same as CEACAM1-HIS; also called hCEACAM1; biotinylated soluble CEACAM1
T1 sequence: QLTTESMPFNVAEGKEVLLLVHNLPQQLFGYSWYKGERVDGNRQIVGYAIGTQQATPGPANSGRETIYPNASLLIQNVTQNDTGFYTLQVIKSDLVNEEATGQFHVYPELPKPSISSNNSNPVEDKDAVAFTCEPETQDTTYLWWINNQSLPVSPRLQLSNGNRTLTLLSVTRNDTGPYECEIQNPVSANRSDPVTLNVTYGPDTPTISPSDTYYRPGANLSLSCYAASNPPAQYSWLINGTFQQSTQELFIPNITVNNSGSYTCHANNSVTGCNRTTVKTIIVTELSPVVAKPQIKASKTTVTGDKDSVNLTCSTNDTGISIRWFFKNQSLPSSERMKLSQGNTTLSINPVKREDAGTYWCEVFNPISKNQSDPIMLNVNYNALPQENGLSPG
Assay: SPR single-cycle
pKd: −log10 of the molar value.
Measured attribute: pKd

[[record]]
binder = "He1/L5 (antibody, IgG4, V domains shown, IgG4 S241P, kappa) VH: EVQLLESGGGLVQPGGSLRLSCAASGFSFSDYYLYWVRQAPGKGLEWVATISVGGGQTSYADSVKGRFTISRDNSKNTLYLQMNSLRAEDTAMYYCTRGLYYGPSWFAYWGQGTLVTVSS VL: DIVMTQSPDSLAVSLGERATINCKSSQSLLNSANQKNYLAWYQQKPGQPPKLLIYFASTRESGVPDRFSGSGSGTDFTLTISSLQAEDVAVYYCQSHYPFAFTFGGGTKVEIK"
val = 6.51

[[record]]
binder = "He3/L4#2 (antibody, IgG4, V domains shown, IgG4 S241P, kappa) VH: EVQLLESGGGLVQPGGSLRLSCAASGFSFSDYYLYWVRQAPGKGLEWVATISVGGGQTSYADSVKGRFTISRDNSKNTLYLQMNSLRAEDTAMYYCTRALTYGPAWLAYWGQGTLVTVSS VL: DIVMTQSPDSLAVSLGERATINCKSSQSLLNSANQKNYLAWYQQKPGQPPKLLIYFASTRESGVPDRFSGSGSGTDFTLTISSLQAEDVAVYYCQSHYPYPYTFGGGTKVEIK"
val = 6.89

[[record]]
binder = "He14/L1 (antibody, IgG4, V domains shown, IgG4 S241P, kappa; also called He14 / 1) VH: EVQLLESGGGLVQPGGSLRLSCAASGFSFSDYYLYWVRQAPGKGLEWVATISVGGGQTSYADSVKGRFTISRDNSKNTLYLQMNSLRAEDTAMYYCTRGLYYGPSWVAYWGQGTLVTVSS VL: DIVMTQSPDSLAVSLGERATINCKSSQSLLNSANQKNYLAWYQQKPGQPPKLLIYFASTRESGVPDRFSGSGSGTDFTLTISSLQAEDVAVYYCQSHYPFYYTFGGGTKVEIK"
val = 7.16

[[record]]
binder = "He6/L16 (antibody, IgG4, V domains shown, IgG4 S241P, kappa) VH: EVQLLESGGGLVQPGGSLRLSCAASGFSFSDYYLYWVRQAPGKGLEWVATISVGGGQTSYADSVKGRFTISRDNSKNTLYLQMNSLRAEDTAMYYCARARTYGPAWFAYWGQGTLVTVSS VL: DIVMTQSPDSLAVSLGERATINCKSSQSLLNSANQKNYLAWYQQKPGQPPKLLIYFASTRESGVPDRFSGSGSGTDFTLTISSLQAEDVAVYYCQSHYPYPFTFGGGTKVEIK"
val = 7.18

[[record]]
binder = "He13/L4#2 (antibody, IgG4, V domains shown, IgG4 S241P, kappa) VH: EVQLLESGGGLVQPGGSLRLSCAASGFSFSDYYLYWVRQAPGKGLEWVATISVGGGQTSYADSVKGRFTISRDNSKNTLYLQMNSLRAEDTAMYYCTRGLYYGPSWLAYWGQGTLVTVSS VL: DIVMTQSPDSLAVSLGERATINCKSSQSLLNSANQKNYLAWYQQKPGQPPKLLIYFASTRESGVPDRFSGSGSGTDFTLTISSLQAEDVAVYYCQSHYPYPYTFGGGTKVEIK"
val = 6.54

